- Target system: UniProt P27338
- Sequence (P27338 whole entry): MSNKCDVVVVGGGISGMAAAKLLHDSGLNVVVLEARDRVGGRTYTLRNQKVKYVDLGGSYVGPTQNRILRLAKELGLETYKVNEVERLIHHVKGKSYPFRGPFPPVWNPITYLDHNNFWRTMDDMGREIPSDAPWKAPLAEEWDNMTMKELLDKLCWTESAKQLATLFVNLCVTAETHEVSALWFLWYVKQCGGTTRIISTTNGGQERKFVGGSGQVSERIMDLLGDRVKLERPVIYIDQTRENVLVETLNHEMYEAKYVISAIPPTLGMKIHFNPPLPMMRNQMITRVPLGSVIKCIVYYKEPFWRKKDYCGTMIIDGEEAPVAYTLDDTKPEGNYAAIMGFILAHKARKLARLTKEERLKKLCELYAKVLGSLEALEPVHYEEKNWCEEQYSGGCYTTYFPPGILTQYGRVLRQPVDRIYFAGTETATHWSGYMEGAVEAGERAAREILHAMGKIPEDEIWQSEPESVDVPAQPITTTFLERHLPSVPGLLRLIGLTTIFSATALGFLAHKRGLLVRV
- Assay name: Inhibition of recombinant MAO-B (unknown origin) by Spectrometric analysis
Quantity kind: IC50 (µM)

a = Cc1ccc(S(=O)(=O)Nc2cccc(C(=O)NCCc3ccc(O)cc3)c2)cc1
b = Cc1ccc(S(=O)(=O)Nc2cccc(C(=O)NCCc3ccc([N+](=O)[O-])cc3)c2)cc1
Problem: API: POST /compare with a and b ; response names the item with higher IC50. Answer by quoting the chosen item's label.
Result: a

I = O=C(NCCc1ccc([N+](=O)[O-])cc1)c1cccc(NS(=O)(=O)c2ccccc2)c1
II = COCc1cccc(NC(=O)c2cc3ccccc3n2C)c1COc1ccc(OC2CCNCC2)cc1
Problem: Select the item whose IC50 value is smaller, choosing between I and II . Answer by quoting the chosen item's label.
Result: II

###

- Target system: Amine oxidase [flavin-containing] A (Homo sapiens)
- Sequence (P21397 whole entry): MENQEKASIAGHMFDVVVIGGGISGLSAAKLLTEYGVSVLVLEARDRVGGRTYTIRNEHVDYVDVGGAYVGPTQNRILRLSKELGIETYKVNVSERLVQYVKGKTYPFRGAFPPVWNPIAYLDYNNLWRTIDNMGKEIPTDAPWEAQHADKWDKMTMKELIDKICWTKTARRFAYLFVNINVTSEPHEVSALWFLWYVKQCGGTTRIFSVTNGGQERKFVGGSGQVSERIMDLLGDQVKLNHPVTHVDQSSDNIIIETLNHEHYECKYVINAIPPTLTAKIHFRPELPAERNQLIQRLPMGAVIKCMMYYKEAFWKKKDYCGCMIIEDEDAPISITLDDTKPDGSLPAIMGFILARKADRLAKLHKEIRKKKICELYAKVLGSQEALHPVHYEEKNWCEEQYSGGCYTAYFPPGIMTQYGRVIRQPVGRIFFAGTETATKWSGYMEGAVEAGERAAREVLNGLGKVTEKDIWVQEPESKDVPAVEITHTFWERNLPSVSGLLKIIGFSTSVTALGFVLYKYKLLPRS
- Assay name: Inhibition of recombinant MAO-A (unknown origin) by Spectrometric analysis
Quantity kind: IC50 (µM)

Mol: O=C(NCCc1ccc([N+](=O)[O-])cc1)c1cccc(NS(=O)(=O)c2ccccc2)c1
Value units: µM
Quantitative result: 63.9
--
Mol: Cc1ccc(S(=O)(=O)Nc2cccc(C(=O)NCCc3ccc(O)cc3)c2)cc1
Value units: µM
Quantitative result: 109
--
Mol: COCc1cccc(NC(=O)c2cc3ccccc3n2C)c1COc1ccc(OC2CCNCC2)cc1
Value units: µM
Quantitative result: 71
--
Mol: Cc1ccc(S(=O)(=O)Nc2cccc(C(=O)NCCc3ccc([N+](=O)[O-])cc3)c2)cc1
Value units: µM
Quantitative result: 90
